Reference source: patent US20240208961A1

Assay: Pharmacokinetic studies of certain compounds in female Balb/c mice (Example 5)
Type: in vivo
Settings: female, Balb/c, mouse, plasma, iv, 1 mg/kg, I-3 IV 1 mg/kg, 8 hr, BQL = below quantifiable limit of 1.00 ng/mL, read-out: Plasma concentration Individual
Protocol: Pharmacokinetic studies were performed using Balb/c mice, 15-20 g, 6-9 weeks, female, N=9, purchased from Jihui Laboratory Animal Co. LTD. For compound I-29, Balb/c mice, 19-21 g, 9-11 weeks, female, N=9, were used. […] Plasma samples were analyzed using LC-MS using a calibration curve of known concentrations. The results of these studies are summarized in Tables 11-21 below and in FIGS. 2-8. […] BQL=below quantifiable limit for compound in female Balb/c mouse plasma samples. […]
ENDPOINT_LABEL: concentration at 8 h

[[record]]
record_smiles = "CC(C)Cc1sc(Nc2ncc(-c3cccs3)cc2C(=O)O)nc1C1CCCCC1"
result = "1.62 ng/mL"


* * *

assay: Pharmacokinetic studies of certain compounds in female Balb/c mice (Example 5); type: in vivo; conditions: female, Balb/c, mouse, plasma, iv, 1 mg/kg, I-3 IV 1 mg/kg, 4 hr, read-out: Plasma concentration Mean
ENDPOINT_LABEL: concentration at 4 h (ng/mL)

[[record]]
record_smiles = "CC(C)Cc1sc(Nc2ncc(-c3cccs3)cc2C(=O)O)nc1C1CCCCC1"
endpoint_label = "concentration at 4 h"
units_label = "ng/mL"
quantitative_readout = 12


* * *

assay: Pharmacokinetic studies of certain compounds in female Balb/c mice (Example 5); format: in vivo; settings: female, Balb/c, mouse, plasma, iv, 1 mg/kg, I-3 IV 1 mg/kg, 0.25 hr, read-out: Plasma concentration Mean
ENDPOINT_LABEL: concentration at 0.25 hr (ng/mL)

[[record]]
record_smiles = "CC(C)Cc1sc(Nc2ncc(-c3cccs3)cc2C(=O)O)nc1C1CCCCC1"
quantitative_readout = 561


* * *

assay: Pharmacokinetic study of I-11 in female BALB/c mice (Example 4); assay type: in vivo, Balb/c mouse; conditions: female, BALB/c, mouse, plasma, po, 100 mg/kg, PO 100 mg/kg, 24 hr
ENDPOINT_LABEL: concentration at 24 hr (ng/mL)

[[record]]
molecule = "CC(C)Cc1sc(Nc2ncc(-c3cccs3)cc2C(=O)O)nc1C(C)(C)C [Compound I-11]"
quantitative_readout = 60.8


* * *

experiment: Pharmacokinetic studies of certain compounds in female Balb/c mice (Example 5); type: in vivo; details: mouse, plasma, I-8 IV 1 mg/kg
ENDPOINT_LABEL: clearance (mL/min/kg)

[[record]]
record_smiles = "CC(C)Cc1sc(Nc2ncc(-c3cccs3)cc2C(=O)O)nc1C1=CCCC1"
units_label = "mL/min/kg"
quantitative_readout = 23.2


* * *

assay: Pharmacokinetic studies of certain compounds in female Balb/c mice (Example 5); type: in vivo; details: female, Balb/c, mouse, plasma, po, 30 mg/kg, I-1 PO 30 mg/kg, 2 hr, read-out: Plasma concentration Individual
ENDPOINT_LABEL: concentration at 2 hr (ng/mL)

[[record]]
record_smiles = "CC(C)Cc1sc(Nc2ncc(-c3cccs3)cc2C(=O)O)nc1C1=CCOCC1"
endpoint_label = "concentration at 2 hr"
units_label = "ng/mL"
quantitative_readout = 376


* * *

test: Pharmacokinetic studies of certain compounds in female Balb/c mice (Example 5); format: in vivo; settings: female, Balb/c, mouse, plasma, po, 50 mg/kg, I-8 PO 50 mg/kg, 1 hr, read-out: Plasma concentration Individual
ENDPOINT_LABEL: concentration at 1 h

[[record]]
record_smiles = "CC(C)Cc1sc(Nc2ncc(-c3cccs3)cc2C(=O)O)nc1C1=CCCC1"
result = "1810 ng/mL"

